The measurements presented in this section are drawn from patent US20040072907A1.

- Test system: HRV serotype-14
- test.name: Antirhinoviral HI-HeLa cell culture assay (XTT cell protection), HRV-14
- Assay type: cell-based, human rhinovirus
- test.settings: HRV serotype-14, HI-HeLa cells, m.o.i. 0.13, two days, XTT; read-out: EC50
The following molecules are listed with their measured EC50 values.
readout.type: EC50 (nM)

> print(dat)
                                   molecule  experimental.target  readout.unit  numeric.result
1  CCOC(=O)/C=C/C(CCC(N)=O)NC(=O)C(CC(=O)C(NC(=O)CC1CCCC1)C(C)C)Cc1ccc(C)cc1 (stereo not shown) [Compound 23]      HRV serotype-14            nM           20900
2  Cc1cc(CCCCCCCOc2ccc(C3=NCCO3)cc2)on1 [WIN 51711, reference compound]      HRV serotype-14            nM             780
3  CCOC(=O)/C=C/C(CCC(N)=O)NC(=O)C(CC(=O)C(NC(=O)OC1CCCC1)C(C)C)Cc1ccc(C)cc1 (stereo not shown) [Compound 20]      HRV serotype-14            nM              42
4  CCOC(=O)/C=C/C(CCC(N)=O)NC(=O)C(CC(=O)C(CC(C)C)NC1CCCC1)Cc1ccc(F)cc1 (stereo not shown) [Compound 19]      HRV serotype-14            nM             280

====

The following molecules are listed with their measured kobs/I values.
- experimental.target: Recombinant Rhinovirus 3C protease serotype 2 (Human rhinovirus 2)
- Construct: Recombinant Rhinovirus 3C proteases from serotypes 14, 16, and 2; made in house
- Sequence (P04936 1508-1690): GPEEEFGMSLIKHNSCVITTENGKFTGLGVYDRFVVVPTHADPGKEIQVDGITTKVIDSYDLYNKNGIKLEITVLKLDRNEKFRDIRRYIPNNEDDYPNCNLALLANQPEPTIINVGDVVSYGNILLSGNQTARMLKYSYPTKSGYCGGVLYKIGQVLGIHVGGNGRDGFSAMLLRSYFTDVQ
- Type: biochemical
readout.type: kobs/I

> print(dat)
                                   molecule  readout.type             result
1  CCOC(=O)/C=C/C(CCC(N)=O)NC(=O)C(CC(=O)C(CC(C)C)NC(=O)SCc1ccccc1)Cc1ccccc1 (centres unmarked) [Compound 6]        kobs/I  13,350 M^−1sec^−1
2  CCOC(=O)/C=C/C(CCC(N)=O)NC(=O)C(CC(=O)C(NC(=O)SCc1ccccc1)C(C)C)Cc1ccccc1 (centres unmarked) [Compound 5]        kobs/I  26,900 M^−1sec^−1
3  CCOC(=O)/C=C/[C@H](CCC(N)=O)NC(=O)[C@@H](CC(=O)[C@H](CC(C)C)NC(=O)SCC)Cc1ccccc1 [Compound 2]        kobs/I   4,600 M^−1sec^−1
4  CCOC(=O)/C=C/[C@H](CCC(N)=O)NC(=O)[C@@H](CC(=O)[C@H](CC(C)C)NC(=O)SC1CCCC1)Cc1ccccc1 [Compound 8]        kobs/I   7,000 M^−1sec^−1
5  CCOC(=O)/C=C/[C@H](CCC(N)=O)NC(=O)[C@@H](CC(=O)[C@@H](NC(=O)SCC)C(C)C)Cc1ccccc1 [Compound 4]        kobs/I  17,800 M^−1sec^−1

====

The following compounds are listed with their measured EC50 values.
- Tested on: HRV serotype-14
- test.name: Antirhinoviral HI-HeLa cell culture assay (XTT cell protection), HRV-14
- Assay type: cell-based, human rhinovirus
- test.settings: HRV serotype-14, HI-HeLa cells, m.o.i. 0.13, two days, XTT; read-out: EC50
readout.type: EC50

> print(dat)
                                   compound   result
1  CCOC(=O)/C=C/[C@H](CCC(N)=O)NC(=O)[C@@H](CC(=O)[C@@H](NC(=O)OC1CCCC1)C(C)C)Cc1ccc(F)cc1   140 nM
2  CCOC(=O)/C=C/C(CCC(N)=O)NC(=O)C(CC(=O)C(Cc1ccccc1)NC(=O)SC1CCCC1)Cc1ccc(F)cc1 (centres unmarked)   480 nM
3  CCOC(=O)/C=C/C(CCC(N)=O)NC(=O)C(CC(=O)C(NC(=O)SC1CCCC1)C(C)C)Cc1ccc(C(F)(F)F)cc1 (centres unmarked)    50 nM
4  Cc1cc(CCCCCOc2c(Cl)cc(C3=NCCO3)cc2Cl)on1 [WIN 54954, reference compound]  2130 nM
5  CCOC(=O)/C=C/C(CCC(N)=O)NC(=O)C(CC(=O)C(Cc1ccccc1)NC(=O)SC1CCCC1)Cc1ccc(C)cc1 (centres unmarked)   140 nM
